# credit: paper PMC12661400

Assay: Toxicokinetic profiling in rats
Assay type: in vivo
Conditions: Sprague-Dawley, rat, plasma, po, 300 mg/kg, single dosing 300 mg/kg
reported_property: AUC(0-t) (ng·h/mL)
Your answer is read as ng·h/mL, so omit the unit and give the number.

Task item: Provide only the value of recorded AUC(0-t) for O=C1CCC(N2C(=O)c3cccc(NCC(=O)N4CCC(N5CCC(C#Cc6ccc(C7CCN(C8=Nn9c(nnc9C(F)(F)F)CC8)CC7)cc6)CC5)CC4)c3C2=O)C(=O)N1 (stereo not shown) [ITRI-148]
Reply: 20100

###

Assay: Toxicokinetic profiling in rats
Format: in vivo
Details: Sprague-Dawley, rat, plasma, po, 1000 mg/kg, 7-times repeated dosing 1000 mg/kg
reported_property: Cmax (µg/mL)
Your answer is read as µg/mL, so omit the unit and give the number.

Task item: Answer with the recorded Cmax for the molecule listed here: O=C1CCC(N2C(=O)c3cccc(NCC(=O)N4CCC(N5CCC(C#Cc6ccc(C7CCN(C8=Nn9c(nnc9C(F)(F)F)CC8)CC7)cc6)CC5)CC4)c3C2=O)C(=O)N1 (stereo not shown)
Reply: 1.91

###

Test: Toxicokinetic profiling in rats
Assay type: in vivo
Settings: Sprague-Dawley, rat, plasma, po, 1000 mg/kg, 7-times repeated dosing 1000 mg/kg
reported_property: AUC(0-t) (ng·h/mL)
Enter your answer as a number in ng·h/mL; do not include the unit.

Task item: Specify AUC(0-t) for O=C1CCC(N2C(=O)c3cccc(NCC(=O)N4CCC(N5CCC(C#Cc6ccc(C7CCN(C8=Nn9c(nnc9C(F)(F)F)CC8)CC7)cc6)CC5)CC4)c3C2=O)C(=O)N1 (stereo not shown) and stop.
Reply: 56000

###

Assay: Metabolic stability in liver microsomes
Type: in vitro ADME
Details: pH 7.4; human liver microsomes; read-out: Plasma Stability t1/2 (microsome panel)
reported_property: half-life at 1 μM

Task item: Report half-life at 1 μM, nothing else, for this molecule: O=C1CCC(N2C(=O)c3cccc(NCC(=O)N4CCC(N5CCC(C#Cc6ccc(C7CCN(C8=Nn9c(nnc9C(F)(F)F)CC8)CC7)cc6)CC5)CC4)c3C2=O)C(=O)N1 (stereo not shown)
Reply: > 1 h

###

Assay: Toxicokinetic profiling in rats
Format: in vivo
Conditions: Sprague-Dawley, rat, plasma, po, 300 mg/kg, 7-times repeated dosing 300 mg/kg
reported_property: AUC(0-t) (ng·h/mL)
Hi! Could you send only the number? It should be in ng·h/mL, unit omitted.

Task item: Kindly indicate its recorded AUC(0-t). Item: O=C1CCC(N2C(=O)c3cccc(NCC(=O)N4CCC(N5CCC(C#Cc6ccc(C7CCN(C8=Nn9c(nnc9C(F)(F)F)CC8)CC7)cc6)CC5)CC4)c3C2=O)C(=O)N1 (stereo not shown)
Reply: 20500

###

Experiment: Toxicokinetic profiling in rats
Type: in vivo
Settings: Sprague-Dawley, rat, plasma, po, 300 mg/kg, single dosing 300 mg/kg
reported_property: Cmax (ng/mL)
Dear colleague, please return just the value in ng/mL, with no unit written.

Task item: Note down Cmax recorded for O=C1CCC(N2C(=O)c3cccc(NCC(=O)N4CCC(N5CCC(C#Cc6ccc(C7CCN(C8=Nn9c(nnc9C(F)(F)F)CC8)CC7)cc6)CC5)CC4)c3C2=O)C(=O)N1 (stereo not shown)
Reply: 659

###

Test: Toxicokinetic profiling in rats
Type: in vivo
Conditions: Sprague-Dawley, rat, plasma, po, 600 mg/kg, single dosing 600 mg/kg
reported_property: AUC(0-t) (ng·h/mL)
# output: bare number, implied unit ng·h/mL

Task item: Query AUC(0-t) for O=C1CCC(N2C(=O)c3cccc(NCC(=O)N4CCC(N5CCC(C#Cc6ccc(C7CCN(C8=Nn9c(nnc9C(F)(F)F)CC8)CC7)cc6)CC5)CC4)c3C2=O)C(=O)N1 (stereo not shown)
Reply: 27100
